- TGT: human NTCP (Homo sapiens)
- PROTOCOL DETAILS: Screening fluorescent competitive Myrcludex B-FITC binding assay (96-well, 10 µM drug)
- PROTOCOL CONDITIONS: Prestwick library screen, Myrcludex B-FITC binding, 10 µM drug
Where a name gives a salt, the structure may show the parent alone.
PROPERTY LABEL: B-score binding assay
No unit in the answer, only the number.

query: Dear colleague, I am looking for the recorded B-score binding assay of the following compound: NC(=O)CN1CCCC1=O
result: -0.345

query: Request: CCCCC[C@H](O)/C=C/[C@H]1[C@H](O)CC(=O)[C@@H]1CCCCCCC(=O)O
result: 0.02

query: Next up: Cc1ccc(N(CC2=NCCN2)c2cccc(O)c2)cc1 [Phentolamine hydrochloride]
result: 1.392

query: Try this compound next: CC(=O)O[C@H]1C[C@@H]2CC[C@@H]3[C@H](CC[C@@]4(C)[C@H]3C[C@H]([N+]3(C)CCCCC3)[C@@H]4OC(C)=O)[C@@]2(C)C[C@@H]1N1CCCCC1 [Vecuronium bromide]
result: 0.155

---

- TGT: human NTCP (Homo sapiens, UniProt Q14973)
- Sequence (Q14973 1-349): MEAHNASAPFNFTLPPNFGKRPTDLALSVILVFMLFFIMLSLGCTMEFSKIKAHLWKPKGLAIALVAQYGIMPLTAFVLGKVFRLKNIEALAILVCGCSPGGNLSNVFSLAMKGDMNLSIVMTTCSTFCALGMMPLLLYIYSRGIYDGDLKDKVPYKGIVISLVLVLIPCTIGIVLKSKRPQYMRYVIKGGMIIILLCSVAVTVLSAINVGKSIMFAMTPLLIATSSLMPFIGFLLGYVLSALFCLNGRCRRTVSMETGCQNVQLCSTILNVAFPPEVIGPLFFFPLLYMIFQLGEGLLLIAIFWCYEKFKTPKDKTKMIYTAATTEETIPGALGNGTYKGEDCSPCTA
- PROTOCOL DETAILS: Screening taurocholate uptake assay (96-well, [14C]taurocholate, 10 µM drug)
- PROTOCOL CONDITIONS: Prestwick library screen, 10 µM drug; B-score of taurocholate uptake
Where a name gives a salt, the structure may show the parent alone.
PROPERTY LABEL: B-score functional assay
Give the figure by itself; no unit, no explanation.

Reference set, count: 5
[
  {
    "COMPOUND": "Cn1nnc2c(C(N)=O)ncn2c1=O [Temozolomide]",
    "B-score functional assay": 0.533
  },
  {
    "COMPOUND": "CC(C)(C)NCC(O)COc1cccc2c1CC(O)C(O)C2 (stereo not shown)",
    "B-score functional assay": 0.292
  },
  {
    "COMPOUND": "Nc1ccc(S(=O)(=O)[N-]c2cnc3ccccc3n2)cc1.[Na+] [Sulfaquinoxaline sodium salt]",
    "B-score functional assay": 0.659
  },
  {
    "COMPOUND": "CCN(CC)C(=O)C1(c2ccccc2)CC1CN.Cl (stereo not shown) [Milnacipran hydrochloride]",
    "B-score functional assay": 1.822
  },
  {
    "COMPOUND": "Cn1cc[nH]c1=S",
    "B-score functional assay": 0.936
  }
]

query: Which B-score functional assay value is on record for COc1ncnc(NS(=O)(=O)c2ccc(N)cc2)c1OC ?
result: 0.522

query: Let us now turn to [H]/N=C(/NCCCCC)N/N=C/c1c[nH]c2ccc(OC)cc12 [Tegaserod maleate]
result: 1.009

---

- TGT: human NTCP (Homo sapiens)
- Sequence (Q14973 1-349): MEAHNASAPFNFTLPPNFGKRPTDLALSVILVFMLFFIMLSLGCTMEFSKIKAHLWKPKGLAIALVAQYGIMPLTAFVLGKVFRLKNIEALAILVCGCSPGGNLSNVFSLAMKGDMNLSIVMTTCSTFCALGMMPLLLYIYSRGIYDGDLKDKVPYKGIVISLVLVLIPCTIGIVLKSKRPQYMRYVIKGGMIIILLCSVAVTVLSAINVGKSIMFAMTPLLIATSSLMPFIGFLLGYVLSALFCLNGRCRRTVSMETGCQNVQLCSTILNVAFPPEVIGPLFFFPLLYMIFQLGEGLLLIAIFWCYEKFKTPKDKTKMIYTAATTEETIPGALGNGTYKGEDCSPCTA
- PROTOCOL DETAILS: Screening fluorescent competitive Myrcludex B-FITC binding assay (96-well, 10 µM drug)
- PROTOCOL CONDITIONS: Prestwick library screen, Myrcludex B-FITC binding, 10 µM drug
Structures can show the parent of a compound that is named as a salt.
Rule: true (1) for B-score binding assay not less than -0.05, false (0) for anything less.

The examples below pair each entry with its known result.
[
  {
    "MOLECULE": "O=C1NCC2(CCN(CCc3ccccc3)CC2)O1 [Fenspiride hydrochloride]",
    "TGT": "human NTCP (Homo sapiens)",
    "GROUP LABEL": "true (1)"
  },
  {
    "MOLECULE": "CC1(C)O[C@@H]2C[C@H]3[C@@H]4C[C@H](F)C5=CC(=O)C=C[C@]5(C)[C@@]4(F)[C@@H](O)C[C@]3(C)[C@]2(C(=O)CO)O1 [Fluocinolone acetonide]",
    "TGT": "human NTCP (Homo sapiens)",
    "GROUP LABEL": "true (1)"
  },
  {
    "MOLECULE": "OC(c1cc(C(F)(F)F)nc2c(C(F)(F)F)cccc12)C1CCCCN1 (stereo not shown) [Mefloquine hydrochloride]",
    "TGT": "human NTCP (Homo sapiens)",
    "GROUP LABEL": "false (0)"
  },
  {
    "MOLECULE": "CC(C(=O)O)c1ccc2c(c1)Cc1cccnc1O2 (stereo not shown)",
    "TGT": "human NTCP (Homo sapiens)",
    "GROUP LABEL": "true (1)"
  },
  {
    "MOLECULE": "COc1ccc(-c2cc(=S)ss2)cc1",
    "TGT": "human NTCP (Homo sapiens)",
    "GROUP LABEL": "true (1)"
  }
]

query: Hi, just wondering whether CO[C@@]1(NC(=O)C2SC(=C(C(N)=O)C(=O)O)S2)C(=O)N2C(C(=O)O)=C(CSc3nnnn3C)CS[C@@H]21 (stereo partly shown) shows B-score binding assay of -0.05 or higher.
result: false (0)

query: Quick one: CC(C)NC[C@@H](O)c1ccc(O)c(O)c1.O=C(O)C(O)C(O)C(=O)O [(+)-Isoproterenol (+)-bitartrate salt]
result: false (0)

---

- PROTOCOL DETAILS: in vitro
- PROTOCOL CONDITIONS: human
PROPERTY LABEL: viability at 2 h, 1 µM (%)
# output: bare number, implied unit %

query: Please look up its viability at 2 h, 1 µM: O=C(O)c1cc(/N=N/c2ccc(S(=O)(=O)Nc3ccccn3)cc2)ccc1O
result: 100

---

- TGT: human NTCP (Homo sapiens, UniProt Q14973)
- PROTOCOL DETAILS: Screening taurocholate uptake assay (96-well, [14C]taurocholate, 10 µM drug)
- PROTOCOL CONDITIONS: combined ranking from functional and binding screening assays
Where a name gives a salt, the structure may show the parent alone.
Ranking score values, listed per item

[
  {
    "MOLECULE": "CCCCCCNC(=O)n1cc(F)c(=O)[nH]c1=O [Carmofur]",
    "Ranking score": 358.68
  }
]

query: Enter reported Ranking score observed with human NTCP (Homo sapiens, UniProt Q14973) for C[N+]1(CCCCC[N+]2(C)CCCC2)CCCC1.O=C([O-])C(O)C(O)C(=O)O.O=C([O-])C(O)C(O)C(=O)O [Pentolinium bitartrate]
result: 451.889

query: Try this molecule too: O=C(O)c1ccccc1OP(=O)(O)O [Fosfosal]
result: 393.853

query: Try this molecule too: Cc1ccc(C)c(OCCCC(C)(C)C(=O)O)c1 [Gemfibrozil]
result: 289.348

query: Next: Nc1ccc(S(=O)(=O)Nc2nccs2)cc1 [Sulfathiazole]
result: 386.996

query: And then CCN(CC)CCOC(=O)C(c1ccccc1)c1ccccc1 [Adiphenine hydrochloride] , what is it?
result: 440.174

query: Same again, this time with COc1c(N2C[C@@H]3CCCN[C@@H]3C2)c(F)cc2c(=O)c(C(=O)O)cn(C3CC3)c12 [Moxifloxacin]
result: 388.165

query: Try this molecule next: CC(CN(C)C)CN1c2ccccc2Sc2ccccc21.CC(CN(C)C)CN1c2ccccc2Sc2ccccc21.O=C(O)C(O)C(O)C(=O)O (centres unmarked) [Trimeprazine tartrate]
result: 352.65

---

- TGT: human NTCP (Homo sapiens)
- PROTOCOL DETAILS: Screening taurocholate uptake assay (96-well, [14C]taurocholate, 10 µM drug)
- PROTOCOL CONDITIONS: ranking score beside the functional and binding assay B-scores of the screen
Structures can show the parent of a compound that is named as a salt.
Each item that follows carries a reported Ranking score.
Give only the figure.

[
  {
    "COMPOUND": "COc1ccc(C(=O)NCc2cccnc2)cc1C(=O)NCc1cccnc1.O [Picotamide monohydrate]",
    "Ranking score": 752.987
  }
]

query: // returns reported Ranking score for input CC[C@@H](C(N)=O)N1CCCC1=O [Levetiracetam]
result: 657.267

query: Also check NC(=O)c1cc[n+](CC2=C(C(=O)O)N3C(=O)[C@@H](NC(=O)[C@@H](c4ccccc4)S(=O)(=O)[O-])[C@H]3SC2)cc1 [Cefsulodin sodium salt]
result: 669.358

query: Same lookup for CCCNCC(O)COc1ccccc1C(=O)CCc1ccccc1 (stereo not shown) [Propafenone hydrochloride] , please.
result: 771.984

query: Now try CCN(CC)CCOc1ccc(C(=C(Cl)c2ccccc2)c2ccccc2)cc1.O=C(O)CC(O)(CC(=O)O)C(=O)O [Clomiphene citrate (Z,E)] .
result: 678.964

query: Likewise for CC(C)[N+](C)(CCC(C(N)=O)(c1ccccc1)c1ccccc1)C(C)C [Isopropamide iodide] ?
result: 698.928

query: Now give it for CCOC(=O)[C@H](CCc1ccccc1)N[C@@H](C)C(=O)N1CCC[C@H]1C(=O)O [Enalapril maleate] too.
result: 705.002

query: Now consider CC(CCc1ccc(O)cc1)NCCc1ccc(O)c(O)c1 (stereo not shown) [Dobutamine hydrochloride] and answer again.
result: 789.916
